Give solubility for every item shown.
# assay.comment: Aqueous solubility of the compound at pH 7.4
# Format: physicochemical
# condition.details: buffer
Numbers only, in µg/mL.

[[record]]
smiles_structure = "CCCCc1ccc(NC(=O)N2CCCN(C(=O)CCC3CCCC3)CC2)cc1"
units_symbol = "µg/mL"
measurement = 3


Problem: Need solubility, item `CC(C)(C)c1cc(NC(=O)N2CCCN(C(=O)N3CCS(=O)(=O)CC3)CC2)no1`
Result: 18

* * *

# Species on record: Rattus norvegicus
# assay.comment: Hepatic blood flow in rat
# Assay type: ADME, organism-based, Liver
reported.endpoint: QH (%)
Give bare numbers, in %.

[[record]]
smiles_structure = "CC(C)(C)c1cc(NC(=O)N2CCCN(C(=O)C3CCOCC3)CC2)no1"
reported_endpoint = "QH"
measurement = 35


The following compounds each have a reported value; give each one's QH.
1. CC(C)(C)c1cc(NC(=O)N2CCCN(C(=O)CN3CCS(=O)(=O)CC3)CC2)no1
2. CC(C)(C)c1cc(NC(=O)N2CCCN(C(=O)N3CCS(=O)(=O)CC3)CC2)no1

Result:
1: 27; 2: 42

* * *

# assay.comment: Aqueous solubility of the compound at pH 7.4
# Format: physicochemical
# condition.details: buffer
Assignment: determine reported solubility for the given compounds.

[[record]]
smiles_structure = "CC(C)(C)c1cc(NC(=O)N2CCCN(C(=O)CN3CCS(=O)(=O)CC3)CC2)no1"
measurement = "> 96 µg/mL"


Count: 2. Required value per item: solubility.
1. CC(C)(C)c1cc(NC(=O)N2CCCN(C(=O)C3CCOCC3)CC2)on1
2. CC(C)(C)c1cc(NC(=O)N2CCCN(C(=O)C3CCOCC3)CC2)no1

Result:
> 37 µg/mL
> 37 µg/mL

Data origin: ChEMBL document CHEMBL1759893
